- PROCEDURE_SUMMARY: Excipient compatibility: rifaximin solutions stored at various temperatures, chemical purity by HPLC
- Type: physicochemical
- CONDITION_NOTES: rifaximin in named solvent; T 2 weeks, 25° C.
MEASURED_QUANTITY: Rifaximin % Label Claim (LC)

{"COMPOUND": "CCOCCOCCO [diethylene glycol monoethyl ether]", "MEASURED_QUANTITY": "Rifaximin % Label Claim (LC)", "VAL": "96.1 % Label Claim (LC)"}
{"COMPOUND": "OCc1ccccc1 [Benzyl alcohol]", "MEASURED_QUANTITY": "Rifaximin % Label Claim (LC)", "VAL": "99.8 % Label Claim (LC)"}

What Rifaximin % Label Claim (LC) value was documented for this compound, CCCCCCCC/C=C\CCCCCCCC(=O)OCC(O)CO (stereo not drawn) [Glyceryl monooleate (Type 40), Glyceryl monooleate] ?
96.4 % Label Claim (LC)

---

- PROCEDURE_SUMMARY: Excipient compatibility: rifaximin solutions stored at various temperatures, chemical purity by HPLC
- Assay type: physicochemical
- CONDITION_NOTES: rifaximin in named solvent; T 4 weeks, 40° C.
MEASURED_QUANTITY: Rifaximin % Label Claim (LC)

{"COMPOUND": "CCCCCCCC/C=C\\CCCCCCCC(=O)OCC(O)CO (stereo not drawn) [Glyceryl monooleate (Type 40), Glyceryl monooleate]", "VAL": "59.0 % Label Claim (LC)"}
{"COMPOUND": "CCCCCCCC/C=C\\CCCCCCCCO [Oleyl alcohol]", "VAL": "95.0 % Label Claim (LC)"}

Now consider a different compound.
What Rifaximin % Label Claim (LC) value was documented for this compound, CCCCC/C=C\C/C=C\CCCCCCCC(=O)OCC(O)CO (stereo not drawn) [Glyceryl monolinoleate] ?
100.0 % Label Claim (LC)

---

# Rifaximin % Label Claim (LC) per record follows
- PROCEDURE_SUMMARY: Excipient compatibility: rifaximin solutions stored at various temperatures, chemical purity by HPLC
- Assay type: physicochemical
- CONDITION_NOTES: rifaximin in named solvent; T 4 weeks, 25° C.

Worked examples follow.
{"COMPOUND": "OCc1ccccc1 [Benzyl alcohol]", "Rifaximin % Label Claim (LC)": "98.2 % Label Claim (LC)"}
{"COMPOUND": "CCOCCOCCO [diethylene glycol monoethyl ether]", "Rifaximin % Label Claim (LC)": "95.4 % Label Claim (LC)"}
{"COMPOUND": "CCOC(=O)CCCCCCCCC(=O)OCC [Diethyl sebacate]", "Rifaximin % Label Claim (LC)": "101.1 % Label Claim (LC)"}

What Rifaximin % Label Claim (LC) value was documented for this compound, CCCCCCCC/C=C\CCCCCCCC(=O)OCC(O)CO (stereo not drawn) [Glyceryl monooleate (Type 40), Glyceryl monooleate] ?
95.0 % Label Claim (LC)

Try the compound CC(C)OC(=O)CCCCC(=O)OC(C)C [Diisopropyl adipate]
95.1 % Label Claim (LC)

Try the compound CCCCC/C=C\C/C=C\CCCCCCCC(=O)OCC(O)CO (stereo not drawn) [Glyceryl monolinoleate]
100.6 % Label Claim (LC)

Try the compound CC(O)CO (stereo not drawn) [Propylene glycol]
96.2 % Label Claim (LC)

Try the compound OCCOCCOCCO [Triethylene glycol]
97.0 % Label Claim (LC)

Try the compound CCCCCCCC/C=C\CCCCCCCCO [Oleyl alcohol]
96.9 % Label Claim (LC)
